Test system: HepG2 cells
Experiment: ROS-Glo hydrogen peroxide (ROS) assay
Type: cell-based, human
Conditions: Homo sapiens, HepG2, 2 h, read-out: ROS (HepG2) EC50
Experimental Readout: EC50 (µM)

molecule=O=C(Nc1ccc(Cl)cc1)Nc1ccc(Cl)c(Cl)c1 experimental_readout=EC50 unit_info=µM measured_number=31.8
molecule="O=C1c2ccccc2C(=O)C1C(=O)C(c1ccccc1)c1ccc(Cl)cc1 (centres unmarked)" experimental_readout=EC50 unit_info=µM measured_number=41.7

---

System: rat primary hepatocytes
Assay: MMP assay in rat primary hepatocytes
Conditions: % of positive control; mean±SD of three experiments
Experimental Readout: Rat hepatocytes (efficacy) (MMP) (%)

compound=Nc1ccc2c(c1)C(=O)c1ccccc1C2=O experimental_readout="Rat hepatocytes (efficacy) (MMP)" measured_number=−58.3
compound=Cc1cc(O)c2c(c1)C(=O)c1cc(O)cc(O)c1C2=O experimental_readout="Rat hepatocytes (efficacy) (MMP)" measured_number=−106
compound="CCN1C(=CC=Cc2ccc3ccccc3[n+]2CC)C=Cc2ccccc21.[Cl-] [Pinacyanol chloride]" experimental_readout="Rat hepatocytes (efficacy) (MMP)" measured_number=−75.4
compound="NNc1nc(-c2ccc([N+](=O)[O-])cc2)cs1 [2-Hydrazino-4-(4-nitrophenyl)thiazole]" experimental_readout="Rat hepatocytes (efficacy) (MMP)" measured_number=−73.9
compound="COc1cc2c(cc1OC)-c1cc3ccc(OC)c(OC)c3c[n+]1CC2 [Palmatine chloride hydrate]" experimental_readout="Rat hepatocytes (efficacy) (MMP)" measured_number=−101
compound="Cl.N=C1C=CC(=C(c2ccc(N)cc2)c2ccc(N)cc2)C=C1 [C.I. Basic red 9 monohydrochloride]" experimental_readout="Rat hepatocytes (efficacy) (MMP)" measured_number=−90.3
compound=Cc1cc(Cc2cc(C)cc(C(C)(C)C)c2O)c(O)c(C(C)(C)C)c1 experimental_readout="Rat hepatocytes (efficacy) (MMP)" measured_number=−121
compound="O=C(O)c1cccnc1Nc1cccc(C(F)(F)F)c1 [Niflumic acid, reference compound]" experimental_readout="Rat hepatocytes (efficacy) (MMP)" measured_number=−98.8
